- target.entity: MSLN抗原 (Mesothelin, MSLN-Biotin) (human) (UniProt Q13421)
- measurement.protocol: BLI (Octet RED96), MSLN-Biotin on AR2G sensor, TG1 periplasmic scFv as analyte
attribute.measured: koff (s⁻¹)
Write the number in s⁻¹ without appending the unit.

1) 2G8 (scFv, V domains shown) VH: QVQLQQPGAELVKPGASMKLSCKASGTQFANYRMHWVKQRPGQGLEWIGMIHPNSDNTIYYEKFKSKATLTVDKSSSTAYMQLSSLTSEDSAVYYCAIIITPVVPKFDYWGQGTTLTVSS VL: DIVMTQSHQFMSTSVGDRVSVTCKASHDVGTSVAWYQQKPGQSPKLLIYWASTRHTGVPDRFTGSGSGTDFTLTISNVQSEDLADYFCQQYSSYPLTFGAGTKLELK :: 0.00111
2) 4A12 (scFv, V domains shown) VH: QVQLQQPGAELVKPGASMKLSCKASGYTFTSYWMHWVKQRPGQGLEWIGMIHPNSDNTIYYEKFKSKATLTVDKSSSTAYMQLSSLTSEDSAVYYCAIVILPFLPKFDYWGQGTTLTVSS VL: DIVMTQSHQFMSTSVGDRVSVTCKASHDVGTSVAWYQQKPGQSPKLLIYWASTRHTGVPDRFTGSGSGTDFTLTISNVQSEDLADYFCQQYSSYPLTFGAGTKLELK :: 0.0001

Query binder follows.
May I ask what koff has been recorded for 3F9 (scFv, V domains shown) VH: QVQLQQPGAELVKPGASMKLSCKASGYTFTSYWMHWVKQRPGQGLEWIGMIHPNSQNTIYYEKFKSKATLTVDKSSSTAYMQLSSLTSEDSAVYYCAIIITPVVPKFDYWGQGTTLTVSS VL: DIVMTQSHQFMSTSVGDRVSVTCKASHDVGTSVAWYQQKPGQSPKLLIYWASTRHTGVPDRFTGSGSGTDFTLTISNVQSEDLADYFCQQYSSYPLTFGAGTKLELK ?
0.000164
